Recorded values, source patent US20240043883A1.

Catalogue of Rate in the presence of MSAD readings, one per entry.
test method notes: Coupled enzyme assay (ADH, with and without MSAD): hydratase and hydratase/decarboxylase activity and product profile of Cg10062 and variants
Type: biochemical
condition: ACA 0.5 mM, pH 8; enzyme final concentration differs per variant (0.025-1.50 mg mL^−1), rates not directly comparable
# value in µM/min; strip the unit string

Past entries and their recorded results:
Cg10062: Tautomerase superfamily enzyme from Corynebacterium glutamicum, SEQ ID NO: 21; His6-tagged form SEQ ID NO: 59 (protein, Cg10062 from Corynebacterium glutamicum codon-optimized for Escherichia coli) PTYTCWSQRIRISREAKQRIAEAITDAHHELAHAPKYLVQVIFNEVEPDSYFIAAQSASENHIWVQATIRSGRTEKQKEELLLRLTQEIALILGIPNEEVWVYITEIPGSNMTEYGRLLMEPGEEEKWFNSLPEGLRERLTELEGSSE ... 146
Y103F: Cg10062 variant with Y103F mutation, SEQ ID NO: 31 and 69 (protein, Cg10062(Y103F) from Corynebacterium glutamicum codon-optimized for Escherichia coli) PTYTCWSQRIRISREAKQRIAEAITDAHHELAHAPKYLVQVIFNEVEPDSYFIAAQSASENHIWVQATIRSGRTEKQKEELLLRLTQEIALILGIPNEEVWVFITEIPGSNMTEYGRLLMEPGEEEKWFNSLPEGLRERLTELEGSSE ... 65

// next entry
*Q* # get_value(readout='Rate in the presence of MSAD', item= Cg10062(E114Q): Previously described Cg10062 variant with E114Q mutation, SEQ ID NO: 22 and 60 (protein, Cg10062(E114Q) from Corynebacterium glutamicum codon-optimized for Escherichia coli) PTYTCWSQRIRISREAKQRIAEAITDAHHELAHAPKYLVQVIFNEVEPDSYFIAAQSASENHIWVQATIRSGRTEKQKEELLLRLTQEIALILGIPNEEVWVYITEIPGSNMTQYGRLLMEPGEEEKWFNSLPEGLRERLTELEGSSE )
*A* 102
